Tested on: SF-539 CNS
Experiment: NCI-60 one-dose screen, 48 h
Conditions: 10 µM unless noted
The panel holds about 83,000 compounds, 20% with a hit somewhere; the sample as a whole holds those more often. Active and inactive are the calls of the source. The calls were made as follows: active = growth percent below 10; inactive = the rest.
Outcomes: Yes for active, No for inactive

compound: CC/C(=N/NC(N)=O)c1ccccc1
category: No
--
compound: c1ccc2c(-c3nc(-c4c[nH]c5ncccc45)cs3)c[nH]c2c1
category: No
--
compound: COc1ccc2c(c1)c(-c1nc(-c3c[nH]c4ncccc34)cs1)cn2CCNC(=O)OC(C)(C)C
category: No
--
compound: COc1ccc(/C=C/C(=O)NCC(C)O)cc1 (centres undefined)
category: No
--
compound: CCNCCCn1c2c(c3ccc([N+](=O)[O-])cc3c1=O)C(=O)c1cc(OC)cnc1-2
category: Yes
--
compound: C=C(C)[C@@H]1CC[C@]2(C)[C@H](CC[C@@H]3[C@H]4[C@H]5OC[C@@]4(CCC5(C)C)CC[C@]32C)[C@@]1(C)CCCN
category: No
--
compound: N#CC1=C(N)Oc2ccc3ccccc3c2C1c1ccccc1Cl (centres undefined)
category: No
--
compound: CCCCC[C@H]1CC=C2C(=O)C=C[C@@H]2CC=CCCCC(=O)O[C@@H](CCCCC)CC=C2C(=O)C=C[C@@H]2CC=CCCCC(=O)O[C@@H](CCCCC)CC=C2C(=O)C=C[C@@H]2CC=CCCCC(=O)O1
category: Yes
--
compound: O=C1CNCCN1
category: No

The reported measurements were obtained from PubChem BioAssay (NCI).
